- test_method_notes: Displacement of [3H]epibatidine from nAChRalpha, beta in rat cerebral cortex
- Format: tissue-based
parameter: Ki (µM)
Give the value, in units of µM, as a plain number.

Please review the entries below; each comes with its answer.
CCN1C[C@]2(COC(=O)c3ccccc3N3C(=O)CC(C)(C)C3=O)CC[C@H](OC)C34C2[C@H](OC)[C@](O)(C13)[C@@]1(O)C[C@H](OC)[C@H]2C[C@@H]4[C@@H]1[C@H]2OC :: 0.602
CCN1C[C@]2(COC(=O)c3ccccc3N3C(=O)C[C@H](C)C3=O)CC[C@H](OC)[C@@]34[C@@H]5C[C@H]6[C@H](OC)[C@@H]5[C@](O)(C[C@@H]6OC)[C@](O)([C@@H](OC)[C@H]23)[C@@H]14 [METHYLLYCACONITINE] :: 0.739
CCN1C[C@]2(COC(=O)c3ccccc3N3C(=O)C[C@@H](C)C3=O)CC[C@H](OC)[C@@]34[C@@H]5C[C@H]6[C@H](OC)[C@@H]5[C@](O)(C[C@@H]6OC)[C@](O)([C@@H](OC)[C@H]23)[C@@H]14 :: 0.352

Can you look up the measured Ki of CCN1C[C@]2(COC(=O)c3ccccc3N3C(=O)C(C)[C@H](C)C3=O)CC[C@H](OC)C34C2[C@H](OC)[C@](O)(C13)[C@@]1(O)C[C@H](OC)[C@H]2C[C@@H]4[C@@H]1[C@H]2OC (some centres undefined) for me?
0.321
